From: ChEMBL document CHEMBL3526080

# IC50 annotations
SYSTEM: Bile salt export pump (Rattus norvegicus, UniProt O70127)
Sequence (O70127 whole entry): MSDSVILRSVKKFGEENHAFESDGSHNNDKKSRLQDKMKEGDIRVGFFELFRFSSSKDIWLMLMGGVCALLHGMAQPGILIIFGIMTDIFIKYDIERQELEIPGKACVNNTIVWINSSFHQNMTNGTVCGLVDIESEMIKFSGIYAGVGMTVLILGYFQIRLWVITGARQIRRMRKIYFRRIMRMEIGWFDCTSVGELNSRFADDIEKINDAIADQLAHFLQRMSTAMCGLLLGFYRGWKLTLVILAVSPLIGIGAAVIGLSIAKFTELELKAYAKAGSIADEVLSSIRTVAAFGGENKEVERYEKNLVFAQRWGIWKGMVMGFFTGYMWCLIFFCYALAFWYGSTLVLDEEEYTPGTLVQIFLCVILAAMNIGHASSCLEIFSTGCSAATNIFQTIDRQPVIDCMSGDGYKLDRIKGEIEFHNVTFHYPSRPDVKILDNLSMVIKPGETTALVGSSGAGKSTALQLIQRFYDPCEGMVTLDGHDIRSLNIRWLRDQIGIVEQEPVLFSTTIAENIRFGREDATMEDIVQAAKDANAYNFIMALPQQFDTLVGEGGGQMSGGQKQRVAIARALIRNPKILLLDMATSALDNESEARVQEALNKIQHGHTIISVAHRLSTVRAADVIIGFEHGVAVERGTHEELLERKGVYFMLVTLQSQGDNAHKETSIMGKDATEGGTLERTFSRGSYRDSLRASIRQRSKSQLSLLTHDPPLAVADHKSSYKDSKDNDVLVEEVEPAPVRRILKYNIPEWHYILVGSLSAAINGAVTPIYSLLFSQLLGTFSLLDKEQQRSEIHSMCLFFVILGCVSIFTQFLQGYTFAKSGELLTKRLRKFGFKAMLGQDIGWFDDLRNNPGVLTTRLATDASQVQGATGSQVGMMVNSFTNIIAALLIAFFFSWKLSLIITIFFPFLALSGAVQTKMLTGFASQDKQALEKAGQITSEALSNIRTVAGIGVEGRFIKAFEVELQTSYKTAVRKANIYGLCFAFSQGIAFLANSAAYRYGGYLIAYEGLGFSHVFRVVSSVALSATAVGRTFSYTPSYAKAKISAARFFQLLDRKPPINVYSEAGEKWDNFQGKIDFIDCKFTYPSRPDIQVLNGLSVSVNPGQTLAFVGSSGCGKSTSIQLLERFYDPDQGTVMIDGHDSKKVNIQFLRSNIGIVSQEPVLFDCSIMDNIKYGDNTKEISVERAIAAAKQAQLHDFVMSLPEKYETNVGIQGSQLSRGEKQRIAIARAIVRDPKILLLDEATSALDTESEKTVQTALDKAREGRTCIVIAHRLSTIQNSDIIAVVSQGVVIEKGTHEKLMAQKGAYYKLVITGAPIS
TEST DETAILS: Inhibition of Sprague-Dawley rat Bsep expressed in plasma membrane vesicles of Sf21 cells assessed as inhibition of ATP-dependent [3H]taurocholate uptake

Worked cases, IC50 given:
COMPOUND | IC50
C[C@H]1COc2c(N3CCN(C)CC3)c(F)cc3c(=O)c(C(=O)O)cn1c23 | > 1000 µM
Nc1ccc(S(=O)(=O)c2ccc(N)cc2)cc1 | > 1000 µM

Input: Find the recorded IC50 belonging to NCCc1ccc(O)c(O)c1 and report it.
Output: > 1000 µM

Input: Find the recorded IC50 belonging to COc1ccc(Cl)cc1C(=O)NCCc1ccc(S(=O)(=O)NC(=O)NC2CCCCC2)cc1 [GLYBURIDE] and report it.
Output: 2.8 µM

====

SYSTEM: UniProtKB O95342
Sequence (O95342 whole entry): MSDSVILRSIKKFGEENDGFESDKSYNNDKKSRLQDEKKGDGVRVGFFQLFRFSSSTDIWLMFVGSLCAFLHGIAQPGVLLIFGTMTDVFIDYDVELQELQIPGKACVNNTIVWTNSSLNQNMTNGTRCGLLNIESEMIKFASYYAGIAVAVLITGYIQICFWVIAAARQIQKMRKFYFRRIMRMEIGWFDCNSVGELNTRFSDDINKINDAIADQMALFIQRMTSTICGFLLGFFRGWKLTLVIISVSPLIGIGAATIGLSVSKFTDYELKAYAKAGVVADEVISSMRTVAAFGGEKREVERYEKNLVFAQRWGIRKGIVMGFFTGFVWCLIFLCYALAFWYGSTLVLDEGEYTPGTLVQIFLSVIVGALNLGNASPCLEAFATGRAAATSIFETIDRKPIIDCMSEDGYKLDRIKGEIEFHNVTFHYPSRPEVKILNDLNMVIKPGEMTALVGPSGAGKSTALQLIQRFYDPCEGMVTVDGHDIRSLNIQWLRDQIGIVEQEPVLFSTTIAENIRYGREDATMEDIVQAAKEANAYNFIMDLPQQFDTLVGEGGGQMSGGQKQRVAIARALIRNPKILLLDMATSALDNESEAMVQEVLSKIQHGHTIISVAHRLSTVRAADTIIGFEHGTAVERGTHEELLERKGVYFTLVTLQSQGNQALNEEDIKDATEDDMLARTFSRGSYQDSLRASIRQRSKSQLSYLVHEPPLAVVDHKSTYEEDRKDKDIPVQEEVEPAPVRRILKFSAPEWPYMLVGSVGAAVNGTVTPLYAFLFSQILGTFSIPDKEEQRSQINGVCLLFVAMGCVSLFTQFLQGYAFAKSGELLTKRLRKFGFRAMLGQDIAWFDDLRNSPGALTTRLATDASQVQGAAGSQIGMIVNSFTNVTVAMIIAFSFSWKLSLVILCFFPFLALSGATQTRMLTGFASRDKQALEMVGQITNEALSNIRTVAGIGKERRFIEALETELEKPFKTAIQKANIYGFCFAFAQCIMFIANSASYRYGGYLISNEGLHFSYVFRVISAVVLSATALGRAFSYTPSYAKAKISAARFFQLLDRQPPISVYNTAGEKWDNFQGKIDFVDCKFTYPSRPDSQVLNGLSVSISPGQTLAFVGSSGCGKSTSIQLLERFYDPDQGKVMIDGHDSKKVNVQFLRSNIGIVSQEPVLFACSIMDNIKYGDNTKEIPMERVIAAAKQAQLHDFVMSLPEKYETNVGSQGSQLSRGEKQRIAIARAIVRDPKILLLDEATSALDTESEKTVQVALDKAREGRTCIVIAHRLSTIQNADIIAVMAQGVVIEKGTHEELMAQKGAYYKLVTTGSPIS
TEST DETAILS: Inhibition of human BSEP expressed in plasma membrane vesicles of Sf21 cells assessed as inhibition of ATP-dependent [3H]taurocholate uptake
MEASURE: log10 IC50 (log10 of the value in µM)
For clarity, the numbers are log10 values of IC50 expressed in µM.

COMPOUND | SYSTEM | log10 IC50
CCc1ccc(CCOc2ccc(CC3SC(=O)NC3=O)cc2)nc1 (configuration not stated) | UniProtKB O95342 | -0.52
CO[C@H]1/C=C/O[C@@]2(C)Oc3c(C)c(O)c4c(O)c(c(/C=N/N5CCN(C)CC5)c(O)c4c3C2=O)NC(=O)/C(C)=C\C=C\[C@H](C)[C@H](O)[C@@H](C)[C@@H](O)[C@@H](C)[C@H](OC(C)=O)[C@@H]1C | UniProtKB O95342 | 1.05
COc1ccccc1Oc1c(NS(=O)(=O)c2ccc(C(C)(C)C)cc2)nc(-c2ncccn2)nc1OCCO | UniProtKB O95342 | 1.58
CCCN(CCC)C(=O)Cc1c(-c2ccc(Cl)cc2)nc2ccc(Cl)cn12 | UniProtKB O95342 | 0.96
O=C(OCC(O)CO)c1ccccc1Nc1ccnc2cc(Cl)ccc12 (configuration not stated) | UniProtKB O95342 | 1.35
CN(CCOc1ccc(CC2SC(=O)NC2=O)cc1)c1ccccn1 (configuration not stated) | UniProtKB O95342 | 0.81
CC(N/C(=N\C#N)Nc1ccncc1)C(C)(C)C (configuration not stated) [PINACIDIL ANHYDROUS] | UniProtKB O95342 | 2.54
CN1CCC(=C2c3ccccc3CC(=O)c3sccc32)CC1 | UniProtKB O95342 | 2.87

Input: Find the recorded log10 IC50 belonging to O=C(O)c1cc(-c2ccccc2)nc2ccccc12 and report it.
Output: 2.84

Input: Find the recorded log10 IC50 belonging to Cc1c(C)c2c(c(C)c1O)CCC(C)(COc1ccc(CC3SC(=O)NC3=O)cc1)O2 (configuration not stated) and report it.
Output: 0.43

Input: Find the recorded log10 IC50 belonging to CC(C)(Oc1ccc(C2CC2(Cl)Cl)cc1)C(=O)O (configuration not stated) [CIPROFIBRATE] and report it.
Output: 2.76

Input: Find the recorded log10 IC50 belonging to COC(=O)C1=C(C)NC(C)=C(C(=O)OC)C1c1ccccc1[N+](=O)[O-] and report it.
Output: 1.49

Input: Find the recorded log10 IC50 belonging to C[C@@H]1C[C@H]2[C@@H]3CCC4=CC(=O)C=C[C@]4(C)[C@@]3(F)[C@@H](O)C[C@]2(C)[C@@]1(O)C(=O)CO and report it.
Output: 2.14

Input: Find the recorded log10 IC50 belonging to COc1ccc(C(=O)NCc2cccnc2)cc1C(=O)NCc1cccnc1 [PICOTAMIDE] and report it.
Output: 2.64

Input: Find the recorded log10 IC50 belonging to CC(C)(Oc1ccc(CCNC(=O)c2ccc(Cl)cc2)cc1)C(=O)O [BEZAFIBRATE] and report it.
Output: 2.37

Input: Find the recorded log10 IC50 belonging to CC1=C(CC(=O)O)c2cc(F)ccc2/C1=C\c1ccc([S+](C)[O-])cc1 (configuration not stated) and report it.
Output: 2.35

Input: Find the recorded log10 IC50 belonging to COc1cc(C)c(/C=C/C(C)=C/C=C/C(C)=C/C(=O)O)c(C)c1C and report it.
Output: 1.26
